Test: protein stability index of a GFP-peptide fusion (GPS, HEK-293T) (PSI 1-6); higher = more stable;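 also: 24-mer peptide tiles fused after GFP, lentivirally expressed, FACS-sorted into six equal bins by GFP/DsRed ratio, decoded by Illumina sequencing, PSI is the read-weighted mean bin number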
Conditions: treatment: MLN4924 1 uM, 8 h; c terminus: a fixed tail appended
recorded endpoint: protein stability index

sequence text	recorded endpoint	quantitative readout
AKSLSFRKGELVTASKAIIEKEYQ [ADD1]	protein stability index	3.94
STPQGKGEVVKIPSRVHGSLEPFR [PWWP2B]	protein stability index	4.03
APGFGEDVPNRLVDNIDMIDGDGD [BEX5]	protein stability index	5.59
ERPGAEGAPLLPPPLPPPSPPGSG [ACBD3]	protein stability index	5.47
TMSIPVAMETDGPLFEDVQMLRKT [PPP2R5C]	protein stability index	4.3
DDTPEVLNRALSNLSSRWKNWWVR [CDS2]	protein stability index	3.12
QTMAGSSPNTPQPVPEQSALCQGL [FAM104A]	protein stability index	4.84
KLEPIKSRAPQLHLEYRFYKQLGS [CSNK1G1]	protein stability index	2.27
KIDYCASSNHGCQHECVNTDDSYS [MATN2]	protein stability index	4.5
LTVVCAAGAEPLPRNGDQWHEIRQ [WEE1]	protein stability index	2.49
KCLSIMLAEWEANPLICPVCTKYN [RPAIN]	protein stability index	2.29
YQSKGYNDDYYEESYFTTRTYGEP [EMD]	protein stability index	3.22
GRLEGLIQPDDLINQLTFIMDANQ [FAF2]	protein stability index	2.77
RNQCRYCRLKKCFRAGMKKEAVQN [HNF4A]	protein stability index	3.19
VLDILTEQREWVLKSSILIAMAVY [INTS3]	protein stability index	2.48
LGDTQFCFRFRQSSGRRVSLHCLL [DENND6A]	protein stability index	2.65
PSLEDLFDLCDRTFSLKTVLMIAI [CSNK1G3]	protein stability index	2.38
SYEKAVKTRVDLKELGQSQKEQGL [PDZK1]	protein stability index	4.84
SIMSTGIVQGSSGAQGSGGGSTSA [CARM1]	protein stability index	5.12
VSEFLKVAEQVGIDKGDIPDLTQA [SNAP91]	protein stability index	4.13
